Test system: MDA-MB-435
Assay: NCI tumour cell line growth inhibition, 48 h; in the data active = GI50 below about 0.43 µM; inactive = the rest
Log the outcome using a class from active, inactive

Consider the worked cases shown below.
INSERT INTO assay_data (compound, assigned_label) VALUES
  ('COc1ccc(C2c3ccc4ccccc4c3Oc3ncn(CCCn4ccnc4)c(=N)c32)cc1OC (stereo not given)', 'inactive'),
  ('COc1cc2c(/C=C3\C(=O)N(C)c4ccccc43)c[nH]c2cc1C', 'inactive');

Incoming: Each compound tested received a call. Report the one for `Cc1cccc2c(=O)c3c(sc12)c(NCCCNCCO)nc1ccccc13` .
Outgoing: inactive

Incoming: Each compound tested received a call. Report the one for `CCCN(CCC)c1ccc(/C=N/NC(=O)c2cccnc2)c(C)c1` .
Outgoing: inactive

###

Test system: MDA-MB-231 breast
Experiment: NCI tumour cell line growth inhibition, 48 h
VALUE_KIND: GI50

Incoming: Return reported GI50; argument: `COc1cc2c3c(n(CCCN=[N+]=[N-])c(=O)c2cc1OC)-c1ccccc1C3=O`
Outgoing: > 100 µM

###

Test system: HOP-18 NSCLC
Test: NCI tumour cell line growth inhibition, 48 h
Quick reference for TGI among some compounds
Output spec: scalar in µM, unitless text.

INSERT INTO results (compound, experimental_target, value_kind, test_value) VALUES
  ('COC(=O)/C=C1\CCC2[C@@H](C(=O)CC3[C@]2(C)CCC[C@@]3(C)C(=O)OC)C1C (stereo not given in full)', 'HOP-18 NSCLC', 'TGI', 79.4);

Incoming: Return reported TGI; argument: `CCOC(=O)c1c(CN2CCNCC2)nc2ccc(Cl)cc2c1-c1ccccc1`
Outgoing: 15.5

###

Test system: UACC-257 melanoma
Test: NCI tumour cell line growth inhibition, 48 h; in the data active = GI50 below about 0.43 µM; inactive = the rest
Log the outcome using a class from active, inactive

INSERT INTO measurements (compound, assigned_label) VALUES
  ('CC(C)CCN(CCC(C)C)CC(=O)Nc1ccc(S(=O)(=O)c2ccc(NC(=O)CN(CCC(C)C)CCC(C)C)cc2)cc1', 'inactive'),
  ('COc1ccc(Nc2ncc(I)c(NCCCNC(=O)C3CCC3)n2)cc1', 'inactive'),
  ('Oc1ccc(N=Nc2ccc(Br)cc2)c(O)c1', 'inactive'),
  ('COc1cc(CSc2nc3ccc(Cl)cc3c(=O)n2Cc2ccccc2)cc(OC)c1OC', 'inactive'),
  ('COc1ccc(C2c3ccc4ccccc4c3Oc3ncn(CCCn4ccnc4)c(=N)c32)cc1OC (centres undefined)', 'inactive');

Incoming: Each compound tested received a call. Report the one for `CCCCCCOC(=O)CC1=C(C)/C(=C/c2[nH]c(-c3ccc[nH]3)cc2OC)N=C1C` .
Outgoing: active

Incoming: Each compound tested received a call. Report the one for CC[C@]12CN3CCc4c([nH]c5ccccc45)[C@@](C(=O)OC)(c4cc5c(cc4OC)N(C)[C@H]4[C@@](O)(C(=O)OC)[C@H](OC(C)=O)[C@]6(CC)C=CCN7CC[C@]54[C@@H]76)CC(C3)[C@H]1O2 (some centres undefined) .
Outgoing: active

Incoming: Each compound tested received a call. Report the one for `O=C(Nc1ccc(Cl)c(C(F)(F)F)c1)Nc1ccc(-c2cccnc2)cc1N1CCC(CO)CC1` .
Outgoing: inactive

Incoming: Each compound tested received a call. Report the one for `Cc1ccc(-c2cc(C(=O)Nc3ccc(S(=O)(=O)N4CCCCC4)cc3)[nH]n2)c(O)c1` .
Outgoing: inactive

###

Tested on: SK-MEL-5 melanoma
Test: NCI tumour cell line growth inhibition, 48 h; in the data active = GI50 below about 0.43 µM; inactive = the rest
Log the outcome using a class from yes (1) for active, no (0) for inactive

Consider the worked cases shown below.
INSERT INTO measurements (compound, experimental_target, assigned_label) VALUES
  ('CC[C@]12CN3CCc4c([nH]c5ccccc45)[C@@](C(=O)OC)(c4cc5c(cc4OC)N(C)[C@H]4[C@@](O)(C(=O)OC)[C@H](OC(C)=O)[C@]6(CC)C=CCN7CC[C@]54[C@@H]76)CC(C3)[C@H]1O2 (stereo partly drawn)', 'SK-MEL-5 melanoma', 'yes (1)'),
  ('COc1cc(OC)c(C(=O)/C=C/c2ccc(C#N)cc2)c(OC)c1', 'SK-MEL-5 melanoma', 'no (0)'),
  ('COc1cc2c3c(n(CCCN=[N+]=[N-])c(=O)c2cc1OC)-c1ccc([N+](=O)[O-])cc1C3=O', 'SK-MEL-5 melanoma', 'no (0)'),
  ('O=S(O)O.O=S(O)O.[Co].[NH2-].[NH2-].[NH2-].[NH2-]', 'SK-MEL-5 melanoma', 'no (0)'),
  ('CCCCCSc1ccc2nc(NC(=O)OCC)sc2c1', 'SK-MEL-5 melanoma', 'no (0)');

Incoming: Each compound tested received a call. Report the one for `CC(C)(C)c1cc(C[P+](c2ccccc2)(c2ccccc2)c2ccccc2)cc(C(C)(C)C)c1O` .
Outgoing: yes (1)

Incoming: Each compound tested received a call. Report the one for `ClCc1ccccc1Cn1cnc2nc(Cl)nc(Cl)c21` .
Outgoing: yes (1)

Incoming: Each compound tested received a call. Report the one for `CCc1cc2c(c(OCC(F)(F)F)c(C(=O)NC3CCN(C(=O)CO)CC3)n2C)c(=O)n1CC(=O)c1ccccc1` .
Outgoing: no (0)

###

System: SK-MEL-2 melanoma
Test: NCI tumour cell line growth inhibition, 48 h
Quick reference for TGI among some compounds
Output spec: scalar in µM, unitless text.

See these solved cases before continuing.
INSERT INTO assay_data (compound, experimental_target, test_value) VALUES
  ('COC(=O)CCc1n(Cc2ccc3ccccc3c2)c2ccccc2[n+]1Cc1ccc2ccccc2c1', 'SK-MEL-2 melanoma', 2.72),
  ('NC(=O)N/N=C(\CC1OC(=O)c2ccccc21)c1ccc([N+](=O)[O-])cc1 (centres undefined)', 'SK-MEL-2 melanoma', 35.4),
  ('O=C1C(Cl)C(c2ccccc2Cl)N1n1cnc2ccccc2c1=O (centres undefined)', 'SK-MEL-2 melanoma', 68.4),
  ('COc1cccc2c1C(=O)c1c(O)c3c(c(O)c1C2=O)C[C@](O)(C(=O)CO)C[C@H]3O[C@@H]1C[C@@H](NC(=O)CCCN(C)C2(c3ccc(F)cc3)CC3CCC2C3)[C@H](O)[C@@H](C)O1 (some centres undefined)', 'SK-MEL-2 melanoma', 2.15),
  ('COc1cc(OC)c(C(=O)/C=C/c2ccc(C#N)cc2)c(OC)c1', 'SK-MEL-2 melanoma', 4.43);

Now let's try a different one.
Incoming: Return reported TGI; argument: Cc1cc(C)c2c(=O)n(CC(O)CN(Cc3ccccc3)CC(O)Cn3sc4nc(C)cc(C)c4c3=O)sc2n1 (centres undefined)
Outgoing: 33.1

###

Tested on: T-47D breast
Assay: NCI tumour cell line growth inhibition, 48 h; in the data active = GI50 below about 0.43 µM; inactive = the rest
Log the outcome using a class from 1 (yes) for active, 0 (no) for inactive

Consider the worked cases shown below.
INSERT INTO results (compound, experimental_target, assigned_label) VALUES
  ('Cc1cc(-c2nc3sc(C)cn3c2/C=N/N=C(N)N)c(C)s1', 'T-47D breast', '0 (no)'),
  ('COc1ccc(OC)c(N2CC(O)=C(c3nc4ccccc4s3)C2=N)c1', 'T-47D breast', '0 (no)'),
  ('O=C(Nc1ccc(I)cc1F)c1cc(Br)ccc1O', 'T-47D breast', '1 (yes)'),
  ('O=C1CN=C(c2ccc[nH]2)c2cc(Cl)ccc2N1', 'T-47D breast', '0 (no)'),
  ('CCCN(CCC)c1ccc(/C=N/NC(=O)c2cccnc2)c(C)c1', 'T-47D breast', '0 (no)');

Incoming: Each compound tested received a call. Report the one for `OCc1ccc(-c2nc(-c3ccc4c(c3)OCO4)c(-c3ccccn3)[nH]2)cc1` .
Outgoing: 0 (no)

Incoming: Each compound tested received a call. Report the one for `O=c1[nH]c(-c2ccc(Cl)c(Cl)c2)cn1-c1ccc(Cl)cc1` .
Outgoing: 0 (no)

Incoming: Each compound tested received a call. Report the one for `Oc1ccc(N=Nc2ccc(Br)cc2)c(O)c1` .
Outgoing: 0 (no)

Incoming: Each compound tested received a call. Report the one for `COc1cc2c(cc1OC)[C@@H]1C(=O)c3ccc4c(c3O[C@@H]1CO2)C[C@H](C(C)C)O4` .
Outgoing: 1 (yes)

Incoming: Each compound tested received a call. Report the one for `COc1cccc(/C=N\NC(=O)c2ccncc2)c1O` .
Outgoing: 0 (no)

Incoming: Each compound tested received a call. Report the one for `CCc1cc2c(c(OCC(F)(F)F)c(C(=O)NC3CCN(C(=O)CO)CC3)n2C)c(=O)n1CC(=O)c1ccccc1` .
Outgoing: 0 (no)

Incoming: Each compound tested received a call. Report the one for `Cc1ncc(C(=O)Nc2ccc(CN3CCN(C)CC3)c(C(F)(F)F)c2)cc1C#Cc1cnc(N)c2ccc(C#N)cc12` .
Outgoing: 1 (yes)

###

System: OVCAR-3 ovarian
Experiment: NCI tumour cell line growth inhibition, 48 h; in the data active = GI50 below about 0.43 µM; inactive = the rest
Log the outcome using a class from active, inactive

INSERT INTO assay_data (compound, experimental_target, assigned_label) VALUES
  ('CCCCCCCCCCCCCCCCn1cc[n+](C)c1', 'OVCAR-3 ovarian', 'active'),
  ('CC(=O)O[C@@H]1c2c(c3c(=O)c4cccc(O)c4c(=O)c=3c2=[N+]=[N-])[C@H](OC(C)=O)[C@@H](OC(C)=O)[C@]1(C)O', 'OVCAR-3 ovarian', 'active'),
  ('c1cc[c]([Ge]([O]c2cccc3cccnc23)([c]2ccccc2)[c]2ccccc2)cc1', 'OVCAR-3 ovarian', 'inactive'),
  ('COc1cccc2c1C(=O)c1c(O)c3c(c(O)c1C2=O)C[C@](O)(C(=O)CO)C[C@H]3O[C@@H]1C[C@@H](NC(=O)CCCN(C)C2(c3ccc(F)cc3)CC3CCC2C3)[C@H](O)[C@@H](C)O1 (some centres undefined)', 'OVCAR-3 ovarian', 'inactive');

Incoming: Each compound tested received a call. Report the one for CCOC(=O)Cc1csc(NC(=O)C(OC(=O)c2ccc(Cl)cc2)c2ccccc2)n1 (centres undefined) .
Outgoing: inactive

Incoming: Each compound tested received a call. Report the one for `COC(=O)CCc1n(Cc2ccc3ccccc3c2)c2ccccc2[n+]1Cc1ccc2ccccc2c1` .
Outgoing: inactive

Incoming: Each compound tested received a call. Report the one for `COc1cc(OC)c(C(=O)/C=C/c2ccc(C#N)cc2)c(OC)c1` .
Outgoing: inactive

Incoming: Each compound tested received a call. Report the one for `CCOC(=O)c1c(NN2CCN(CC(F)(F)F)CC2)oc(/C=C2\C=Nc3ncccc32)c1O` .
Outgoing: inactive

Incoming: Each compound tested received a call. Report the one for `COc1cc(CSc2nc3ccc(Cl)cc3c(=O)n2Cc2ccccc2)cc(OC)c1OC` .
Outgoing: inactive
